tested on: Saccharomyces cerevisiae; test: protein stability index of tFT-peptide fusion in deletion strain of DAS1 (PSI (0-1 scale)); higher = more stable (slower turnover)
EXPERIMENTAL_ENDPOINT: protein stability index

Some solved entries appear below for comparison.
PDKRNHKIKLLN :: 0.599
VRGARGGWRLVG :: 0.686
CTACGYKFRTNN :: 0.676

(Q) Give the value of protein stability index reported for the following: PSLRASFWRVVG
(A) 0.688

(Q) Kindly indicate its recorded protein stability index. Item: PSLAYSFWRVVG
(A) 0.693

(Q) Provide only the value of recorded protein stability index for RLIQPLPVQFLD
(A) 0.573

* * *

test system: Saccharomyces cerevisiae; experiment: protein stability index of tFT-peptide fusion (C-terminal peptide) (PSI (0-1 scale)); higher = more stable (slower turnover); conditions: genetic background: wild type; temperature: 30 C
Reported protein stability index maps to class as: low range = under 0.6, mid range = from 0.6 up to 0.7, high range = 0.7 and over

(Q) Determine which band this sequence sits in: LKKEFSGKEIQD
(A) high range

(Q) Which class is correct for the following sequence? WRPPPPYSPFSL
(A) high range

(Q) Form field 'band' for RTLYAGVVGGNG
(A) high range

(Q) Lab note: which band did TESGWMGRGFMR land in?
(A) mid range

(Q) Where would HRVRVRVYTCGF land among the classes by reported protein stability index?
(A) mid range

(Q) Kindly state the category for this sequence: YFIVVSWFLVCW
(A) low range

(Q) Looking at DVYIVLFIIKHG , which class would you pick?
(A) low range

(Q) Which class is correct for the following sequence? QRCAVRSSFYVL
(A) mid range

(Q) Consider ECCDSGLCWLTF . To which protein stability index class does it belong?
(A) high range

(Q) Which of the defined bands does the recorded protein stability index of PPTPRPHPPSRP sit within?
(A) high range

(Q) Assign a bin to CCLSCGRPTLGS
(A) high range

(Q) For GLSLLLLWFKVC , which protein stability index bin applies?
(A) low range

(Q) Category of MVISTRARCMFF :
(A) mid range

(Q) Sort RPPPLLPARLSL into one of the categories.
(A) high range

(Q) Which bin, given its protein stability index, does EHMEYKSMVSCA occupy?
(A) low range

(Q) Class (by measured protein stability index) for TSKPGLQIPRRE
(A) high range

(Q) Which of the defined bands does the recorded protein stability index of KKRKNNKIRKKK sit within?
(A) high range

(Q) Into which category would you place PFSPHPGPPPPP ?
(A) high range

(Q) Place this sequence in its band: GVLEEVGPGLFL
(A) high range

(Q) Lab log: RCGGIWWIVSSV — assign protein stability index category
(A) mid range

(Q) // return the class label for CYIFFFSRELFY
(A) low range

* * *

test system: Saccharomyces cerevisiae; test: protein stability index of tFT-peptide fusion (C-terminal peptide) (PSI (0-1 scale)); higher = more stable (slower turnover); conditions: genetic background: das1 deletion; temperature: 37 C
Below, each of the sequences is paired with its reported protein stability index value.
Give the value as a plain number.

The following sequences have reported results that may help.
LSSIIRFLIFCL :: 0.596
VNFVLTLYPYLV :: 0.603
LCVFFRCFFVGG :: 0.608

Now for a further sequence.
(Q) State the measured protein stability index (Saccharomyces cerevisiae) of IPLGLTLVQCLY
(A) 0.607

Each recorded value in this set is attributed to the supplement of paper PMC10724198.
